// values below are reported tissue uptake at 4 h
# test-summary: Biodistribution of ^111In-labelled fragments in CD1 nu/nu mice without tumours
# Assay type: in vivo, mouse
# conditions: CD1 nu/nu, mouse, in vivo, iv, 100 kBq, total radioactivity, Biodistribution of fragment, Bone
Where a SMILES comes first, the peptide text is derived from it. The star is where a group is joined. NODAGA = O=C(O)CN1CCN(CC(=O)O)CCN(C(CCC(=O)*)C(=O)O)CC1

compound	tissue uptake at 4 h
NC(=O)[C@@H](N)CCCCNC(=O)CCC(C(=O)O)N1CCN(CC(=O)O)CCN(CC(=O)O)CC1 (some centres unmarked)	0.07 %ID/g
CC(C)[C@H](NC(=O)[C@H](C)NC(=O)[C@@H](N)CCC(=O)O)C(=O)N[C@@H](CCCCNC(=O)CCC(C(=O)O)N1CCN(CC(=O)O)CCN(CC(=O)O)CC1)C(N)=O (some centres unmarked) [CL1-F2] (H-EAVK(NODAGA)-NH2)	0.06 %ID/g
NC(=O)[C@H](CCCCNC(=O)CCC(C(=O)O)N1CCN(CC(=O)O)CCN(CC(=O)O)CC1)NC(=O)[C@H](CO)NC(=O)[C@@H]1CCCN1C(=O)[C@@H]1CCCN1C(=O)[C@@H]1CCCN1C(=O)[C@@H](N)CCC(=O)O (some centres unmarked) [CL3-F2] (H-EPPPSK(NODAGA)-NH2)	0.21 %ID/g
CC(C)[C@H](NC(=O)[C@H](C)NC(=O)[C@H](CCC(=O)O)NC(=O)[C@@H](N)CCC(=O)O)C(=O)N[C@@H](CCCCNC(=O)CCC(C(=O)O)N1CCN(CC(=O)O)CCN(CC(=O)O)CC1)C(N)=O (some centres unmarked) [CL1-F1] (H-EEAVK(NODAGA)-NH2)	0.05 %ID/g
NC(=O)[C@H](CCCCNC(=O)CCC(C(=O)O)N1CCN(CC(=O)O)CCN(CC(=O)O)CC1)NC(=O)[C@H](Cc1ccccc1)NC(=O)[C@@H](N)CC(=O)O (some centres unmarked)	0.01 %ID/g
